Recorded values, source PubChem BioAssay.

Reported composite z-score by item:
- assay-system: Torsin-1A-interacting protein 1 (Homo sapiens)
- experimental-protocol: LAP1 binders from COS7 cell lysate, primary screen, small-molecule microarray, 635/667 nm fluorescence (AID 1116)
- measurement-setup: COS7-hLAP1 lysate binding, 635 nm fluorescence, higher = more signal
quantity: composite z-score

compound | result
CCOC(=O)C1=C[C@@H](CC)N(S(=O)(=O)c2ccc(C)cc2)[C@H]1c1ccccc1 | 0.905
O=C1C2C=CC(C(O)c3cccs3)N(Nc3ccccc3F)C2C(=O)N1c1ccccc1 (stereo not drawn) | 0.543
COc1ccc(CCNC(=O)[C@@]2(Sc3ccc(C)cc3)CC(=O)N(Cc3ccccc3Cl)[C@@H]2c2ccc(CO)cc2I)cc1 | 1.08
C=CCOC(=O)[C@@H]1[C@H]2C(=O)O[C@H](c3ccccc3)[C@H](c3ccccc3)N2[C@H](c2ccc(OCCOC(=O)[C@@H]3C[C@@H]4C(=O)N[C@@H](Cc5ccccc5)C(=O)N4[C@@H]3c3cccc(OCCO)c3)cc2)[C@@]12C(=O)Nc1ccc(I)cc12 | 1.31
COC(=O)C1=CC(CCCO)=CC(C2CC2)N(Cc2sc3ccccc3c2Cl)C=C1C(=O)OC (stereo not drawn) | 1.74
C=C(CCCC)/C(=C/C[C@H](OC(C)=O)c1ccc(CO)o1)c1cnc2ccccc2c1 | -0.092
COCCOC(=O)N1C(=O)[C@@]2(c3cc(C#CC4=CCCCC4)ccc31)[C@H](C(=O)N1CCc3cc(OC)c(OC)cc3C1)[C@H]1C(=O)O[C@H](c3ccccc3)[C@H](c3ccccc3)N1[C@@H]2c1ccccc1OCCO | 0.261
O=C1C2C=CC(C(O)c3ccc(B(O)O)cc3)N(Nc3ccccc3)C2C(=O)N1c1ccccc1 (stereo not drawn) | 0.949
